PROTOCOL: Hepatotoxicity against human HepG2 cells assessed as cell viability at 50 uM after 24 hrs by MTT assay relative to control
MEASURE: viability at 24 h, 50 µM (%)
Express your answer in %, writing the number without its unit.

Query: Suppose we examine the compound CC(C)C(CO)NC(=O)/C=C/c1ccccc1 (racemic) ; what viability at 24 h, 50 µM value has been reported?
Response: 89.1

Query: Suppose we examine the compound CC(CO)NC(=O)/C=C/c1ccccc1 (racemic) ; what viability at 24 h, 50 µM value has been reported?
Response: 95

Query: Suppose we examine the compound CCC(O)CNC(=O)/C=C/c1ccccc1 (racemic) ; what viability at 24 h, 50 µM value has been reported?
Response: 89.4

Query: Suppose we examine the compound CC(O)CNC(=O)/C=C/c1ccccc1 (racemic) ; what viability at 24 h, 50 µM value has been reported?
Response: 92.6

Query: Suppose we examine the compound COc1cccc2c1C(=O)c1c(O)c3c(c(O)c1C2=O)C[C@@](O)(C(=O)CO)C[C@@H]3O[C@H]1C[C@H](N)[C@H](O)[C@H](C)O1 [DOXORUBICIN] ; what viability at 24 h, 50 µM value has been reported?
Response: 51.6
